Assay: PK of compound of Formula (Ia) after single subcutaneous dose of solution formulations in beagle dogs
Assay type: in vivo
Conditions: male, beagle, dog, plasma, sc, 12 mg/kg, beagle dogs, SC 12 mg/kg, 500 mg/mL solution X (5.00% ethanol, 1.91% poloxamer 188), 8.00 h, Mean n = 3
Quantity name: concentration at 8 h (µM)
Your answer is read as µM, so omit the unit and give the number.

Challenge: I'd like to know its concentration at 8 h. The molecule in question is `CC(C)(C#Cc1ccc(-c2ccc(Cl)c3c(NS(C)(=O)=O)nn(CC(F)(F)F)c23)c([C@H](Cc2cc(F)cc(F)c2)NC(=O)Cn2nc(C(F)(F)F)c3c2C(F)(F)[C@@H]2C[C@H]32)n1)S(C)(=O)=O`
Response given: 0.0261

* * *

Assay: PK of compound of Formula (Ia) after single subcutaneous dose of solution formulations in Wistar Han rats
Type: in vivo
Settings: male, Wistar Han, rat, plasma, sc, 50 mg/kg, Wistar Han rats, SC 50 mg/kg, 400 mg/mL solution W (5.00% ethanol, 1.57% poloxamer 188), 168 h, animals #1-#3
Quantity name: concentration at 168 h (nM)
Give a bare numeral; the unit nM is implied.

Challenge: Give the measured concentration at 168 h of `CC(C)(C#Cc1ccc(-c2ccc(Cl)c3c(NS(C)(=O)=O)nn(CC(F)(F)F)c23)c([C@H](Cc2cc(F)cc(F)c2)NC(=O)Cn2nc(C(F)(F)F)c3c2C(F)(F)[C@@H]2C[C@H]32)n1)S(C)(=O)=O` .
Response given: 80

* * *

Test: PK of compound of Formula (Ia) after single subcutaneous dose of solution formulations in Wistar Han rats
Assay type: in vivo
Settings: male, Wistar Han, rat, plasma, sc, 50 mg/kg, mean ± SD, n = 3 rats; SC 50 mg/kg; solution S, 500 mg/mL; read-out: AUC0-168 h
Quantity name: AUC(0-t) (µM·h)
Quick reminder: number only, in µM·h, skip the unit.

Challenge: Returns the measured AUC(0-t) for the input molecule. Input: CC(C)(C#Cc1ccc(-c2ccc(Cl)c3c(NS(C)(=O)=O)nn(CC(F)(F)F)c23)c([C@H](Cc2cc(F)cc(F)c2)NC(=O)Cn2nc(C(F)(F)F)c3c2C(F)(F)[C@@H]2C[C@H]32)n1)S(C)(=O)=O [compound of Formula (Ia)]
Response given: 19.7

* * *

Test: PK of compound of Formula (Ia) after single subcutaneous dose of solution formulations in beagle dogs
Assay type: in vivo
Conditions: male, beagle, dog, plasma, sc, 12 mg/kg, beagle dogs, SC 12 mg/kg, 400 mg/mL solution Y (water, PEG 300), 168 h, Mean n = 3
Quantity name: concentration at 168 h

Challenge: Consider the compound shown here: CC(C)(C#Cc1ccc(-c2ccc(Cl)c3c(NS(C)(=O)=O)nn(CC(F)(F)F)c23)c([C@H](Cc2cc(F)cc(F)c2)NC(=O)Cn2nc(C(F)(F)F)c3c2C(F)(F)[C@@H]2C[C@H]32)n1)S(C)(=O)=O [compound of Formula (Ia)] What is its recorded concentration at 168 h?
Response given: 47.8 nM

* * *

Test: PK of compound of Formula (Ia) after single subcutaneous dose of solution formulations in beagle dogs
Format: in vivo
Conditions: male, beagle, dog, plasma, sc, 12 mg/kg, 672 h; individual dogs; SC 12 mg/kg; solution T, 400 mg/mL
Quantity name: concentration at 672 h (nM)
Supply the numeric figure in nM, leaving out any unit text.

Challenge: Reported concentration at 672 h for CC(C)(C#Cc1ccc(-c2ccc(Cl)c3c(NS(C)(=O)=O)nn(CC(F)(F)F)c23)c([C@H](Cc2cc(F)cc(F)c2)NC(=O)Cn2nc(C(F)(F)F)c3c2C(F)(F)[C@@H]2C[C@H]32)n1)S(C)(=O)=O [compound of Formula (Ia)] : what is it?
Response given: 150
